# experimental-protocol: AUC (0-t) in Sprague-Dawley rat at 2 mg/kg,iv measured upto 24 hrs by LC-MS/MS analysis
# Format: ADME, organism-based
# Design: dose 2 mg/kg, time < 24 hrs, route iv
# run-conditions: in vivo
measured-parameter: AUC(0-t) at 24 h
Mention the unit after the number when you answer.

Ask: Name the recorded AUC(0-t) at 24 h of the item COc1cc(Cc2nnc3n2N=C(c2ccc(C)cc2)CS3)cc(OC)c1OC in your answer.
Reply: 307 ng·h/mL

----------
# Test system: HT-29
# experimental-protocol: Antiproliferative activity against human HT-29 cells assessed as cell growth inhibition incubated for 48 hrs by MTT assay
# Format: functional, cell-based
# run-conditions: HT-29, 48 h
Recorded IC50, one value per entry.

Below, 4 molecules whose answers are already recorded.
>  <smiles-record>
COc1ccc(Cc2nnc(SCC(=O)c3ccc(C)cc3)n2N)c(OC)c1OC

>  <test-value>
620 nM

$$$$
>  <smiles-record>
COc1cc(Cc2nnc3n2N=C(c2ccc(C)cc2)CS3)cc(OC)c1OC

>  <test-value>
570 nM

$$$$
>  <smiles-record>
COc1cc(OCc2nnc3n2N=C(c2ccc(C)cc2)CS3)cc(OC)c1OC

>  <test-value>
460 nM

$$$$
>  <smiles-record>
COc1cc(Cc2nnc3n2N=C(c2ccccc2)CS3)cc(OC)c1OC

>  <test-value>
> 50000 nM

$$$$

Ask: With HT-29 as the test system, provide measured IC50 for this molecule: COc1cc(Cc2nnc3n2N=C(c2ccc([N+](=O)[O-])cc2)CS3)cc(OC)c1OC
Reply: > 50000 nM

----------
# experimental-protocol: Clearance in Sprague-Dawley rat at 10 mg/kg,po measured upto 24 hrs by LC-MS/MS analysis
# Format: ADME, organism-based
# run-conditions: in vivo
measured-parameter: CL/F (mL/min/kg)
Give the quantity in mL/min/kg, number only.

Ask: Name the recorded CL/F of the item COc1cc(Cc2nnc3n2N=C(c2ccc(C)cc2)CS3)cc(OC)c1OC in your answer.
Reply: 2180

----------
# System: A549
# experimental-protocol: Antiproliferative activity against human A549 cells assessed as cell growth inhibition incubated for 48 hrs by MTT assay
# Assay type: functional, cell-based
# run-conditions: A549, 48 h
measured-parameter: pIC50
Units for pIC50: none; it is -log10 of a concentration expressed in mol/L.

Below, 3 compounds whose answers are already recorded.
>  <smiles-record>
COc1cc(Cc2nnc3n2N=C(c2ccc(C)cc2)CS3)cc(OC)c1OC

>  <pIC50>
6.02

$$$$
>  <smiles-record>
COc1cc(Cc2nnc3n2N=C(c2ccc(Cl)cc2)CS3)cc(OC)c1OC

>  <pIC50>
5.24

$$$$
>  <smiles-record>
COc1ccc(Cc2nnc(SCC(=O)c3ccc(C)cc3)n2N)c(OC)c1OC

>  <pIC50>
4.93

$$$$

From here, focus on the item given below.
Ask: Name the recorded pIC50 of the item COc1cc(OCc2nnc3n2N=C(c2ccc(C)cc2)CS3)cc(OC)c1OC in your answer.
Reply: 4.51

----------
# experimental-protocol: MRT (0-infinity) in Sprague-Dawley rat at 10 mg/kg,po measured upto 24 hrs by LC-MS/MS analysis
# Format: ADME, organism-based
# run-conditions: in vivo
measured-parameter: MRT inf (h)
Give the quantity in h, number only.

Ask: Name the recorded MRT inf of the item COc1cc(Cc2nnc3n2N=C(c2ccc(C)cc2)CS3)cc(OC)c1OC in your answer.
Reply: 7.9
